Measured log10(kon), listed per entry.
target: T1, monovalent hVISTA-ECD with polyhistidine tail (SEQ ID NO: 325) (human, UniProt Q9H7M9 33-193); experiment: SPR, mAb captured on Protein A chip, hVISTA injected, PBST pH 7.4, 37 C
T1 construct: also called hVISTA-ECD 6-His tag; human VISTA
T1 sequence (Q9H7M9 other isoform, or with tags, fused parts or gaps limits assumed): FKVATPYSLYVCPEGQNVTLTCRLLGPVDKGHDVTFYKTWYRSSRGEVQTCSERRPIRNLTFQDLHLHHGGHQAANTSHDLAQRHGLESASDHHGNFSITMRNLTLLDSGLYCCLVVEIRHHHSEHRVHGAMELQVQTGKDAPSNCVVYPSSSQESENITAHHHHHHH
Log scale reminder: kon in M⁻¹ s⁻¹, then log10 taken.

[[record]]
binder = "P1-068748 (antibody, V domains shown, captured on a Protein A chip) VH: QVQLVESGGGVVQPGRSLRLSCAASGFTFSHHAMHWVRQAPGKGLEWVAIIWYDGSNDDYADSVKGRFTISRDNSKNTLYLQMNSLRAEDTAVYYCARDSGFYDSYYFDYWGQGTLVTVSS VL: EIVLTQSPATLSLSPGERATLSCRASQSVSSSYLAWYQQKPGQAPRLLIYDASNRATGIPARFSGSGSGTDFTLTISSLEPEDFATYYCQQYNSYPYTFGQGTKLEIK"
assaymetric = "log10(kon)"
numericreadout = 4.73


Shifting focus to the binder that follows.
stdin: Which log10(kon) is listed for P1-077887 (P1-068748 H31S D100S) (antibody, V domains shown, Reversion mutant of P1-068748 (Kabat names); captured on a Protein A chip) VH: QVQLVESGGGVVQPGRSLRLSCAASGFTFSSHAMHWVRQAPGKGLEWVAIIWYDGSNDDYADSVKGRFTISRDNSKNTLYLQMNSLRAEDTAVYYCARDSGFYSSYYFDYWGQGTLVTVSS VL: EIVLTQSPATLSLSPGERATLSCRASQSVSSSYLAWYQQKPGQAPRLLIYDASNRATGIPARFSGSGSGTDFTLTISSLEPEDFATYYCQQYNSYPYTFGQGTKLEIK ?
stdout: 5.96
